Target or test system: Platelet-activating factor receptor (Mus musculus) (UniProt Q62035)
Sequence (Q62035 whole entry): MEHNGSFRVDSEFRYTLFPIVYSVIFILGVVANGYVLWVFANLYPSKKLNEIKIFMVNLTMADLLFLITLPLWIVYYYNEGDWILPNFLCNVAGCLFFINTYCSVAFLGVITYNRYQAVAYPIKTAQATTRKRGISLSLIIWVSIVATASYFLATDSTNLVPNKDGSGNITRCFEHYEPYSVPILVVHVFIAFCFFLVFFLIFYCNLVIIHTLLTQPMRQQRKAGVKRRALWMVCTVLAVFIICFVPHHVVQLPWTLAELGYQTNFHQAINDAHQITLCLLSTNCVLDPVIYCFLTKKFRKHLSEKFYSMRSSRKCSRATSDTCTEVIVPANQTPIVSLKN
Method: Ability to protect mice from lethal effects after administration of PAF (Platelet-Activating Factor)
Type: functional, organism-based
In plain terms, low ED50, meaning strictly below 0.2 mg/kg, gives label 1, and everything else gives label 0.

Molecule | Cat
Cc1nc2cnccc2n1-c1ccc(C2CC(=O)N(C)c3cc(Cl)c(Cl)cc3C2)cc1 (stereo not drawn) | label 1
Cc1nc2cnccc2n1-c1ccc(C2CC(=O)Nc3cc(Cl)c(Cl)cc3C2)cc1 (stereo not drawn) | label 1
Cc1nc2cnccc2n1-c1ccc(C2=Nc3ccccc3NC(=O)C2)cc1 | label 0
Cc1nc2cnccc2n1-c1ccc(C2=Nc3ccccc3N(C)C(=O)C2)cc1 | label 1
Cc1nc2cnccc2n1-c1ccc(C2=CCC(=O)c3ccccc3N2)cc1 | label 0
Cc1nc2cnccc2n1-c1ccc(C2=Nc3cc(Cl)c(Cl)cc3NC(=O)C2)cc1 | label 1
Cc1cc2c(cc1C)NC(=O)CC(c1ccc(-n3c(C)nc4cnccc43)cc1)=N2 | label 1
